All values here come from PubChem BioAssay (NCI).

System: SW-620 colon
Test: NCI tumour cell line growth inhibition, 48 h
property_label: TGI (µM)
Please respond with the number in µM and leave the unit unwritten.

structure_smiles_string | endpoint_result
Cc1c2cccc-2ccc2c1[nH]c1ccc(Br)cc12 | 25.2

// switching to the query molecule
Prompt line: Param item = C#C[C@@]1(O)[C@@H](CO)O[C@@H](n2ccc3c(N)ncnc32)[C@@H]1O ; retrieve measured TGI.
Response line: 12.7

====

TGI for assorted molecules
System: MOLT-4 leukemia
Experiment: NCI tumour cell line growth inhibition, 48 h
Where a SMILES comes first, the peptide text is derived from it. [ ]: non-standard residue; d: D form. NMeY = CN[C@@H](Cc1ccc(O)cc1)C(=O)O; dNMeF = CN[C@H](Cc1ccccc1)C(=O)O; Sar = CNCC(=O)O

Observe how each entry below is paired with its result.
molecule | endpoint_result
CCN(CC)CCn1c2cc3c(cc2c(=O)c2cccnc21)OCO3 | > 10 µM
CC[C@H](C)[C@@H]1NC(=O)[C@H](Cc2ccc(O)cc2)N(C)C(=O)[C@H](Cc2ccccc2)NC(=O)CN(C)C(=O)[C@@H]2CCCN2C(=O)[C@@H](Cc2ccccc2)N(C)C(=O)[C@H](CC(C)C)NC1=O (cyclo(F[NMeY]IL[dNMeF]P[Sar])) | 10.6 µM
O=C1c2cscc2C(=O)C1(O)O | 57.8 µM
NCCCCN(CCCN)Cc1ccccc1 | > 100 µM
COc1cc(Br)cc2nc(-c3cccs3)oc12 | > 100 µM
O=C(/C=C\c1ccccc1)Oc1ccc(/C=C2\CCCCC2=O)cc1 | 16.5 µM
c1ccc2sc(SCN(C3CCCCC3)C3CCCCC3)nc2c1 | > 100 µM
COC(=O)[C@@H]1C2OC(C)(C)OC2CN1C(=O)OCc1ccccc1 (stereo partly specified) | > 100 µM

Prompt line: Param item = Cc1cc(C)n(-c2nc3ccccc3c(=O)n2-c2ccccc2)n1 ; retrieve measured TGI.
Response line: > 100 µM

Prompt line: Also check COc1cc(C)c2c(=O)c3c(oc2c1)C(=O)c1c(O)c(OC)cc(O)c1C3=O
Response line: 4.6 µM

Prompt line: Also check S=C(N/N=C(/c1ccccc1)c1ccccn1)Nc1ccc(Cl)cc1
Response line: > 13.8 µM

====

Tested on: SNB-75 CNS
Test: NCI tumour cell line growth inhibition, 48 h
property_label: TGI (µM)
Please respond with the number in µM and leave the unit unwritten.

Observe how each entry below is paired with its result.
molecule | TGI (µM)
CN(C)CCCNc1ccnc2cc([N+](=O)[O-])ccc12 | 48.9
c1ccc(-c2nnc(Nc3ccc4c(c3)OCCO4)o2)c(NCc2ccncc2)c1 | 12.1
CCO/C=N/C1=C(C#N)C(c2ccc(Cl)cc2)c2c(-c3ccccc3)nn(-c3ccccc3)c2O1 (centres undefined) | 29.1
O=C(Nc1nnc(-c2c(Cl)c(Cl)c(Cl)c(Cl)c2-c2nc3cc(C(=O)c4ccccc4)ccc3[nH]2)o1)c1ccccc1 | 41.4
Nc1nc(N)c2c(ccc3nccc32)[nH]1 | 89.4

Prompt line: Param item = CCCCCCCCCCCC[n+]1ccccc1 ; retrieve measured TGI.
Response line: 4.05

====

Test system: K-562 leukemia
Assay: NCI tumour cell line growth inhibition, 48 h; in the data active means GI50 below about 0.43 µM; inactive means the rest
Where a SMILES comes first, the peptide text is derived from it. [ ]: non-standard residue; d: D form. NMeY = CN[C@@H](Cc1ccc(O)cc1)C(=O)O; dNMeF = CN[C@H](Cc1ccccc1)C(=O)O; Sar = CNCC(=O)O
# valid calls are active, inactive; nothing else

The following compounds have reported results that may help.
compound | label_class
Fc1ccc(-c2nnc3sc(COc4ccccc4Cl)nn23)cc1Cl | inactive
Nc1nc(N)c2c(ccc3nccc32)[nH]1 | active
O=c1oc2ccc(Cl)cc2c(=O)n1-c1cc(C(F)(F)F)cc(C(F)(F)F)c1 | active
N#Cc1cccc(/C=C(/C(=O)c2ccccc2)c2ccccc2)c1 | inactive
CC[C@H](C)[C@@H]1NC(=O)[C@H](Cc2ccc(O)cc2)N(C)C(=O)[C@H](Cc2ccccc2)NC(=O)CN(C)C(=O)[C@@H]2CCCN2C(=O)[C@@H](Cc2ccccc2)N(C)C(=O)[C@H](CC(C)C)NC1=O (cyclo(F[NMeY]IL[dNMeF]P[Sar])) | active
CO[C@H]1C[C@@H]2CC[C@@H](C)[C@@](O)(O2)C(=O)C(=O)N2CCCC[C@H]2C(=O)O[C@H]([C@H](C)C[C@@H]2CC[C@@H](OP(C)(C)=O)[C@H](OC)C2)CC(=O)[C@H](C)/C=C(\C)[C@@H](O)[C@@H](OC)C(=O)[C@H](C)C[C@H](C)/C=C/C=C/C=C/1C | inactive
Cc1ccc(N=Nc2c(N)nn(-c3ccccc3)c2N)cc1 | active

Switching to the query record.
Prompt line: Check the results log: what was the call for O=C1c2cc3c(cc2[C@@H]2[C@H]1c1ccc([N+](=O)[O-])cc1C(=O)N2CCCCl)OCO3 ?
Response line: inactive

====

Tested on: OVCAR-5 ovarian
Assay: NCI tumour cell line growth inhibition, 48 h
property_label: TGI

compound | measured_on | endpoint_result
CC1=C(C#N)C2C(=C(N)Oc3ccccc32)C(N)=N1 (stereo unspecified) | OVCAR-5 ovarian | 91.6 µM
NCCCC1NC(=O)/C(=C(O)/C=C/C2CCC[C@@H]2CC2SCCS2)C1=O (stereo partly specified) | OVCAR-5 ovarian | > 100 µM
Nc1ccc(Nc2c3ccccc3nc3ccccc23)cc1 | OVCAR-5 ovarian | > 10 µM
Cc1cc2c3ccccc3ccc2[n+]2ccccc12 | OVCAR-5 ovarian | > 100 µM

Prompt line: Please tell me: TGI of O=C(O)C[O][Sb][O]CC(=O)O , system OVCAR-5 ovarian?
Response line: > 100 µM

Prompt line: Also check CN(C)c1nc(=NCc2cccs2)ss1
Response line: > 10 µM

Prompt line: Also check CO[C@@H]1C=C[C@@]23c4cc5c(cc4C(O)N(CC2O)C3C1)OCO5 (stereo partly specified)
Response line: 79.3 µM

Prompt line: Also check Cc1cc(C)n(-c2nc3ccccc3c(=O)n2-c2ccccc2)n1
Response line: > 100 µM

Prompt line: Also check O=c1oc2ccc(Cl)cc2c(=O)n1-c1cc(C(F)(F)F)cc(C(F)(F)F)c1
Response line: 17.4 µM

Prompt line: Also check COc1cc2c(cc1OC)C1CCc3ccccc3CN1CC2 (stereo unspecified)
Response line: > 100 µM

Prompt line: Also check O=C1/C(=C/c2ccccc2)N=C(c2ccccc2)N1C1Nc2cc3c(cc2S1)NC(N1C(=O)/C(=C/c2ccccc2)N=C1c1ccccc1)S3 (stereo unspecified)
Response line: > 100 µM

====

Tested on: SF-295 CNS
Assay: NCI tumour cell line growth inhibition, 48 h
property_label: TGI

Prompt line: Param item = Nc1ccn(C2CC(O)C(CO)O2)c(=O)n1 (stereo unspecified) ; retrieve measured TGI.
Response line: > 5000 µM

Prompt line: Also check CC(C)(C)CC(C)(C)N=C(N)NO
Response line: > 100 µM

Prompt line: Also check COc1ccc([C@H]2C=C(c3cc(F)c(Cl)cc3Cl)NC(=S)N2)cc1
Response line: > 100 µM

Prompt line: Also check CCN(CC)CCn1c2cc3c(cc2c(=O)c2cccnc21)OCO3
Response line: > 10 µM

Prompt line: Also check COc1cc(/C=C/c2ccc(OC(C)=O)cc2)cc(OC)c1OC
Response line: 66.3 µM

Prompt line: Also check COc1cc2c(cc1OC)C1CCc3ccccc3CN1CC2 (stereo unspecified)
Response line: > 100 µM

====

Tested on: MDA-N
Assay: NCI tumour cell line growth inhibition, 48 h
TGI for assorted compounds

Observe how each entry below is paired with its result.
compound | endpoint_result
COc1ccc([C@H]2C=C(c3cc(F)c(Cl)cc3Cl)NC(=S)N2)cc1 | 33.2 µM
CC(C)=C[C@@H]1C[C@H](C)c2c(O)cc(C)c3c2C1=C(C)C(=O)C3=O | 33.7 µM
CC(C)c1c(O[Si](C(C)C)(C(C)C)C(C)C)c2c3c(ccc4c3c1OC4(C)C)C(C)CC2 (stereo unspecified) | > 100 µM
Cc1cccc(NC(=O)CCl)c1 | > 10 µM
O=C1c2cscc2C(=O)C1(O)O | > 100 µM

Prompt line: Param item = COc1ccc2oc(=O)c3c(c2c1C)OC(C)(C)C=C3 ; retrieve measured TGI.
Response line: > 100 µM

====

TGI for assorted compounds
System: UACC-62 melanoma
Experiment: NCI tumour cell line growth inhibition, 48 h
Please respond with the number in µM and leave the unit unwritten.

Prompt line: Please tell me: TGI of CCC[CH2][Ge]([CH2]CCC)([CH2]CCC)[O]C(=O)C(O)c1ccccc1 (stereo not drawn) , system UACC-62 melanoma?
Response line: 18.1

Prompt line: Also check COc1cc2c(cc1Oc1ccc(OC)c3c1CC1c4c(cc(OC)c(OC)c4-3)CCN1C)CC1c3c(cc(OC)c(OC)c3-2)CCN1C (stereo not drawn)
Response line: 3.65

Prompt line: Also check Cc1ccc(C(CC(=O)C(C)(C)CN2CCCCC2)SCCS(=O)(=O)O)cc1 (stereo not drawn)
Response line: 46.8

Prompt line: Also check COc1cc(C)c2c(=O)c3c(oc2c1)C(=O)c1c(O)c(OC)cc(O)c1C3=O
Response line: 4.61

Prompt line: Also check CO[C@H]1C[C@@H]2CC[C@@H](C)[C@@](O)(O2)C(=O)C(=O)N2CCCC[C@H]2C(=O)O[C@H]([C@H](C)C[C@@H]2CC[C@@H](OP(C)(C)=O)[C@H](OC)C2)CC(=O)[C@H](C)/C=C(\C)[C@@H](O)[C@@H](OC)C(=O)[C@H](C)C[C@H](C)/C=C/C=C/C=C/1C
Response line: 20.7

Prompt line: Also check Cc1c2cccc-2ccc2c1[nH]c1ccc(Br)cc12
Response line: 27.1
